# EXPERIMENTAL PARAMETERS: 318.15 K; 102 kPa; Liquid; Vibrating tube method
± gives the expanded uncertainty stated by the source.
compounds and their reported mass density

Data request: What value of measured mass density is listed for C[Si]1(CCC(F)(F)F)O[Si](C)(CCC(F)(F)F)O[Si](C)(CCC(F)(F)F)O1 (stereo not given) ?
Data returned: 1223.55 ± 1 kg/m3

Data request: What value of measured mass density is listed for `COc1ccccc1` ?
Data returned: 970.52 ± 1 kg/m3

Data request: What value of measured mass density is listed for `CCc1ccccc1` ?
Data returned: 844.7 ± 1 kg/m3

Data request: What value of measured mass density is listed for `O=[N+]([O-])c1ccccc1` ?
Data returned: 1178.24 ± 1 kg/m3

Data request: What value of measured mass density is listed for `CC(C)(C)c1ccccc1` ?
Data returned: 845.87 ± 1 kg/m3

Source of measurements: the NIST ThermoML archive (doi:10.1016/j.jct.2015.12.025)
